Where do the numbers come from? From ChEMBL document CHEMBL4400530.

Run Description: Lipophilicity, log P of the compound
Format: physicochemical
Condition Label: octanol/water
Measured Property: logP

Molecule | Readout Value
CC1(C)[C@@H](O)CC[C@]2(C)[C@H]3C(=O)C=C4[C@@H]5C[C@@](C)(C(=O)O)CC[C@]5(C)CC[C@@]4(C)[C@]3(C)CC[C@@H]12 [ENOXOLONE] | 6.75
